molecular target: GCN2 (Homo sapiens); assay: GCN2 enzyme inhibition assay (Reaction Biology EIF2AK4/GCN2 kinase assay); assay type: biochemical; parameters: purchased Reaction Biology Corp; conditions: human GCN2 enzyme activity, 10 μM ATP, 20 μM peptide substrate
Sequence (Q9P2K8 whole entry): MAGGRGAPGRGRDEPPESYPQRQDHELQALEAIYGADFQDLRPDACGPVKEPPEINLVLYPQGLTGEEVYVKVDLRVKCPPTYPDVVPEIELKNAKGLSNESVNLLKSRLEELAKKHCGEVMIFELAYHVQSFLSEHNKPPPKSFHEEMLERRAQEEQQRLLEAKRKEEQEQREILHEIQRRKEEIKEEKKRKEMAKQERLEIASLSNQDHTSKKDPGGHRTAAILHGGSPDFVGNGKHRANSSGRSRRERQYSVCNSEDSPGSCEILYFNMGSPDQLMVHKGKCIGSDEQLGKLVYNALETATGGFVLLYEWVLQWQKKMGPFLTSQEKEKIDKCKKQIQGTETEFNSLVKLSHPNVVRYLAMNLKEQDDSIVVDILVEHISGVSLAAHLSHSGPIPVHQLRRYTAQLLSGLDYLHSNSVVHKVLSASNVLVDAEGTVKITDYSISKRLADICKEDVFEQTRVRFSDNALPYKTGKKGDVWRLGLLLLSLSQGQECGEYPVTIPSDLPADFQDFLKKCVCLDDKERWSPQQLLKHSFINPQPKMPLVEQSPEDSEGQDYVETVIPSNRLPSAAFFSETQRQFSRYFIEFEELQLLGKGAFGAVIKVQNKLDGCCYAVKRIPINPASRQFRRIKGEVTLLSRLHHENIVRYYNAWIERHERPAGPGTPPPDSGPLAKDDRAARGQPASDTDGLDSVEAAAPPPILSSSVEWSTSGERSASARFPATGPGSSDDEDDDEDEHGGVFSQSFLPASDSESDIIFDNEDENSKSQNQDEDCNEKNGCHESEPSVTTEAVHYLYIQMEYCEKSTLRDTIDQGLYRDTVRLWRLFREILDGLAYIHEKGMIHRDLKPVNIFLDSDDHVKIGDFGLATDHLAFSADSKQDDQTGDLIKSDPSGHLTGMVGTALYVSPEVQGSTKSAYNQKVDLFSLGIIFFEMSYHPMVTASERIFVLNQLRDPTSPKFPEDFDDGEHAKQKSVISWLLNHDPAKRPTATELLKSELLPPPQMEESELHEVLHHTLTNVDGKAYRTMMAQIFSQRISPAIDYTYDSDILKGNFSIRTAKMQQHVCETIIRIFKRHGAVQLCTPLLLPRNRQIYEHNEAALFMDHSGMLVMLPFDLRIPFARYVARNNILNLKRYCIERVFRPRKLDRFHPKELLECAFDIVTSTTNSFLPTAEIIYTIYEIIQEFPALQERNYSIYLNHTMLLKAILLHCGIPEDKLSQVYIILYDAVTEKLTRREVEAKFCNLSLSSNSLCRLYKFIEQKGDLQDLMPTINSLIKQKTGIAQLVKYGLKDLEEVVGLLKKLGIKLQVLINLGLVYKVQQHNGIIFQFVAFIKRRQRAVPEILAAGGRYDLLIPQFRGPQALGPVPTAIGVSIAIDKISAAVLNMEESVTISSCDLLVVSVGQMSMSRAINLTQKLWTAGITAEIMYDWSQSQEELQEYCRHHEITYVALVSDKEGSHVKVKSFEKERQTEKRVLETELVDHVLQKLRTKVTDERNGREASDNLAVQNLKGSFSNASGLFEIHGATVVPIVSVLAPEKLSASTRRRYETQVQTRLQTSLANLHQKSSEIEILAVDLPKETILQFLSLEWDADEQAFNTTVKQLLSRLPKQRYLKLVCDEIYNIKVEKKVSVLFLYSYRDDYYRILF
property measured: IC50

The recorded IC50 for COc1ncc(Cl)cc1-c1nnc(-c2ccc(F)c(C#Cc3cnc(N)nc3)c2F)o1 [Compound 7] is > 1000 nM

====

molecular target: GCN2 (Mus musculus); construct: endogenous in cells; assay: GCN2 inhibition cell-based assay (P-GCN2 Western blot in Neuro 2a cells); settings: amino acid deprived media (DMEM lacking L-cysteine and methionine), 3 hours
Sequence (Q9QZ05 whole entry): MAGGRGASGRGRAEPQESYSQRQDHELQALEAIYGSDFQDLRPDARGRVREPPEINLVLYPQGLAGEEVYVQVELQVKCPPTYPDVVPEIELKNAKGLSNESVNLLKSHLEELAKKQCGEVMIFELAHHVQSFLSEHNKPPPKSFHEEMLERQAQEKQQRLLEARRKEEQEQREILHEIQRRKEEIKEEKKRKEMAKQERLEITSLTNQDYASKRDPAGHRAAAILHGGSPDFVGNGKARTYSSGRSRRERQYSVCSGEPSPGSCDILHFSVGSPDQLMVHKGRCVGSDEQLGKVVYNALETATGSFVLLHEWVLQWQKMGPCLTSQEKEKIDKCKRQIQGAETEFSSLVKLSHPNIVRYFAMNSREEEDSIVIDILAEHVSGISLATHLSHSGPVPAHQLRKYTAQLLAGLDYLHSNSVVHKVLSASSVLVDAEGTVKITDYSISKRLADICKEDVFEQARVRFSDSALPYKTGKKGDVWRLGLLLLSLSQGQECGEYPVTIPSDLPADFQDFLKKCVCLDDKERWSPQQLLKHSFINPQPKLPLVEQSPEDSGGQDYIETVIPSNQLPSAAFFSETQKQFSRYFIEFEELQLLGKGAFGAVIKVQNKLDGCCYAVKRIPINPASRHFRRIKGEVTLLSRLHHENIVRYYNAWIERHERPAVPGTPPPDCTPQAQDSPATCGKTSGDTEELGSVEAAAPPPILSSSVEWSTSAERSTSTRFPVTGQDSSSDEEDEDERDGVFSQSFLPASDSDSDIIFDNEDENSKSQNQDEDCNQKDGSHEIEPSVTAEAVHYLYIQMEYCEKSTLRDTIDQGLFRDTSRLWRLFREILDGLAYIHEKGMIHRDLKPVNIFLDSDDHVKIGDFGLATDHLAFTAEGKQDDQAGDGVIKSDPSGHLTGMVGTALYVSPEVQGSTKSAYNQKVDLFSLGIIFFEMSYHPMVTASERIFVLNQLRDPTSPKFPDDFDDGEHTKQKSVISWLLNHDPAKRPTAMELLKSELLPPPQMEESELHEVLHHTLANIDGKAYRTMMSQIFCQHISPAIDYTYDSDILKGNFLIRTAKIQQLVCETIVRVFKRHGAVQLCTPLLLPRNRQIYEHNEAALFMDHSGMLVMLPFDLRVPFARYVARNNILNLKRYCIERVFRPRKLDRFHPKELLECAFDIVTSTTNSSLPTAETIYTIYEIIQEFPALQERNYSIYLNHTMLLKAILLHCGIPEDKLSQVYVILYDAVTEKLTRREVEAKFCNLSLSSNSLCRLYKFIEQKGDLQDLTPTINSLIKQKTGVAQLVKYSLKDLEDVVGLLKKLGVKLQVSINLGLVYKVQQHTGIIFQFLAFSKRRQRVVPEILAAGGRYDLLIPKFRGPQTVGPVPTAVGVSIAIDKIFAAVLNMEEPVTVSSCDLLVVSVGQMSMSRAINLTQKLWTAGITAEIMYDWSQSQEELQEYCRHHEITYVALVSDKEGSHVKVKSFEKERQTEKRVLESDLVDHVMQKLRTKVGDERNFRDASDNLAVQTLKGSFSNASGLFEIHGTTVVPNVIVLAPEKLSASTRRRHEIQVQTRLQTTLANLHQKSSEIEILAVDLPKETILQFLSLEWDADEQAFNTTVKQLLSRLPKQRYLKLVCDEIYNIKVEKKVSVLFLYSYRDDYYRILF
pIC50: −log10 of the molar value.
Please go through the items and note down their pIC50.

INSERT INTO results (chem_smiles, result) VALUES
  ('Nc1ncc2cc(-c3c(F)ccc(NS(=O)(=O)c4cccc5cnccc45)c3F)ccc2n1', '> 8.00'),
  ('O=S(=O)(Nc1ccc(F)c(-c2ccc3nc(N[C@H]4CC[C@H](O)CC4)ncc3c2)c1F)c1cc(Cl)ccc1C(F)(F)F', '> 8.00'),
  ('COc1ncc(Cl)cc1S(=O)(=O)Nc1ccc(F)c(-c2cccc3cnc(N)nc23)c1F', '< 6.00');

Hey, can you go through the list below and give me pIC50 for every item?
1. COc1ncc(Cl)cc1S(=O)(=O)Nc1ccc(F)c(-c2ccc3nc(N[C@H]4CC[C@@H](O)CC4)ncc3c2)c1F
2. Nc1ncc2cc(-c3c(F)ccc(NS(=O)(=O)c4cc(Cl)cc(C(F)(F)F)c4)c3F)ccc2n1
3. COc1ccc(C)cc1S(=O)(=O)Nc1ccc(F)c(-c2ccc3nc(N)ncc3c2)c1F

1. > 8.00
2. 7.00 to 8.00
3. 7.00 to 8.00

The recorded pIC50 for `O=S(=O)(Nc1ccc(F)c(-c2ccc3nc(N[C@H](CO)c4ccccc4)ncc3c2)c1F)c1cc(Cl)ccc1C(F)(F)F` is 6.00 to 7.00
